# tested.on: human LPA1 (Homo sapiens, UniProt Q92633)
# Construct: expressed in transfected cells; host or cells: Chinese hamster ovary (CHO) cells
# Sequence (Q92633 whole entry): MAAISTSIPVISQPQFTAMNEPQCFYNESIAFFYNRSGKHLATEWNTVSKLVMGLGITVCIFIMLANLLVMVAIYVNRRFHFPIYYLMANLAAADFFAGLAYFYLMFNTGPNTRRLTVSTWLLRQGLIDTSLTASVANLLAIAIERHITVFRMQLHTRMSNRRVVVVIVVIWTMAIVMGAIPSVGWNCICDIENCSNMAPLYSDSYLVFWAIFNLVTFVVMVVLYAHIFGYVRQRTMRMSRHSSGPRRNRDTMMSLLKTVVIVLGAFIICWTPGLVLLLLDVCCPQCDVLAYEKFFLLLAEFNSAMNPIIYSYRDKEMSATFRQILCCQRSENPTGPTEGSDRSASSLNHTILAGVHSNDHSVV
# test.description: LPA1 functional antagonist assay (LPA-induced calcium flux)
# Type: cell-based
# experimental.conditions: CHO cells overexpressing human LPA1; calcium flux induced by 10 nM LPA; read-out: hLPA1 IC50
observation.type: IC50 (nM)

Reference set, count: 10
{"molecule": "Cc1noc(-c2ccc(O[C@H]3CCC[C@H](C(=O)O)C3)cc2)c1COC(=O)N(C)C1CCOC1 (stereo partly shown) [Example 31]", "IC50 [nM]": 370}
{"molecule": "Cc1noc(-c2ccc(O[C@@H]3CCC[C@@H](C(=O)O)C3)c(F)c2)c1COC(=O)N(C)C1CCCC1 [Example 38]", "IC50 [nM]": 26}
{"molecule": "COCC(C)N(C)C(=O)OCc1c(C)noc1-c1ccc(O[C@@H]2CCC[C@@H](C(=O)O)C2)cc1 (stereo partly shown) [Example 67]", "IC50 [nM]": 675}
{"molecule": "Cc1noc(-c2ccc(O[C@H]3CCC[C@H](C(=O)O)C3)cc2)c1C(C)OC(=O)N(C)CCC(C)C (stereo partly shown) [Example 50]", "IC50 [nM]": 175}
{"molecule": "CCCCN(C)C(=O)OCc1c(C)noc1-c1ccc(O[C@H]2CCC[C@H](C(=O)O)C2)c(C)n1 [Example 15]", "IC50 [nM]": 15}
{"molecule": "Cc1noc(-c2ccc(O[C@H]3CCC[C@H](C(=O)O)C3)cc2)c1COC(=O)N(C)CCC(C)(C)C [Example 30]", "IC50 [nM]": 60}
{"molecule": "Cc1noc(-c2ccc(O[C@H]3CCC[C@H](C(=O)O)C3)cc2)c1COC(=O)N(C)CCC1CCC1 (racemic) [Example 29]", "IC50 [nM]": 424}
{"molecule": "Cc1noc(-c2ccc(O[C@H]3CCC[C@H](C(=O)O)C3)cc2)c1C(C)OC(=O)N(C)[C@H](C)C1CC1 (stereo partly shown) [Example 51]", "IC50 [nM]": 32}
{"molecule": "Cc1onc(-c2ccc(O[C@H]3CCC[C@H](C(=O)O)C3)cc2)c1COC(=O)N(C)C1CCCC1 [Example 53]", "IC50 [nM]": 6}
{"molecule": "Cc1noc(-c2ccc(O[C@@H]3CCC[C@@H](C(=O)O)C3)cc2)c1COC(=O)N(C)C(C)C1CC1 (stereo partly shown) [Example 68]", "IC50 [nM]": 48}

A = Cc1noc(-c2ccc(O[C@H]3CCC[C@H](C(=O)O)C3)cc2)c1COC(=O)N(C)CC1CC1 [Example 37]
B = Cc1noc(-c2ccc(OC3CCCC(c4nnn[nH]4)C3)cc2)c1COC(=O)N(C)C1CCCC1 (mixture of isomers) [Example 75]
C = Cc1noc(-c2ccc(OC3CCCC(c4nnn[nH]4)C3)cc2)c1COC(=O)N(C)C1CCCC1 (single isomer, unassigned) [Example 77]
Req: List by increasing IC50. Please respond with the labels ordered as the question requires.
Resp: A, C, B
(A: 206 nM, C: 379 nM, B: 851 nM)

A = COCCN(C)C(=O)OCc1c(C)noc1-c1ccc(O[C@@H]2CCC[C@@H](C(=O)O)C2)cc1 [Example 72]
B = Cc1onc(-c2ccc(O[C@H]3CCC[C@H](C(=O)O)C3)nc2)c1COC(=O)N(C)C1CCCC1 [Example 54]
Req: Among A and B , which shows a numerically higher IC50 result? Could you answer with the label of the item you picked?
Resp: A
(A: 472 nM, B: 197 nM)

a = Cc1noc(-c2ccc(O[C@H]3CCC[C@H](C(=O)O)C3)cc2)c1COC(=O)N(C)CC1CCC1 [Example 34]
b = Cc1noc(-c2ccc(O[C@@H]3CCC[C@@](F)(C(=O)O)C3)cc2)c1COC(=O)N(C)C1CCCC1 (single isomer, unassigned) [Example 4]
c = Cc1noc(-c2ccc(O[C@@H]3CCC[C@](C)(C(=O)O)C3)cc2)c1COC(=O)N(C)C1CCCC1 (racemic) [Example 7]
d = [2H]C([2H])([2H])N(C(=O)OCc1c(C)noc1-c1ccc(O[C@H]2CCC[C@H](C(=O)O)C2)cn1)[C@H](C)C1CC1 [Example 66]
Req: List by increasing IC50. Please respond with the labels ordered as the question requires.
Resp: b, d, a, c
(b: 15 nM, d: 25 nM, a: 82 nM, c: 2180 nM)
